- TEST_PROTOCOL: Fourteen-day repeat-dose toxicity study in beagle dogs
- Type: in vivo, dog
- MEASUREMENT_CONTEXT: female, beagle, dog, in vivo, po, 10 mg, dog, females, 10 mg, Day 1; read-out: AUC0-24

COMPOUND	AUC(0-t) (ng·h/mL)
C[C@@H]1CN(Cc2ncccn2)C[C@H]1c1cn2c(C3CCOCC3)ncc2c(=O)[nH]1 (single isomer, unassigned)	24800

----------
- TEST_PROTOCOL: Pharmacokinetics of single oral and IV dose in Sprague Dawley rats
- Format: in vivo
- MEASUREMENT_CONTEXT: rat, blood; Sprague Dawley rats, 10 mg/kg oral

COMPOUND	Tmax [h]
C[C@@H]1CN(Cc2ncccn2)C[C@H]1c1cn2c(C3CCOCC3)ncc2c(=O)[nH]1 (single isomer, unassigned)	1
